test: NCI Yeast Anticancer Drug Screen. Data for the mec2-1 strain (AID 157); conditions: S. cerevisiae mec2-1 strain, at 50.0 µM, stronger effect = higher value
The panel holds about 79,000 compounds, 15% with a hit somewhere; the sample as a whole holds those more often.
Catalogue of growth inhibition readings, one per entry.
Form entry: value (%) — number only.

Please review the following examples before continuing.
C=C(C)C1Cc2c(cc(O)c3c(=O)c4c(oc23)C(O)Oc2cc(OC)c(OC)cc2-4)O1 (stereo not given): -0.95
Nc1nc(N)nc(CNc2c(Br)cc(Br)cc2Br)n1: 24.6
CCOC(=O)CNC=O: -6.1

growth inhibition reported for this compound "O=C(O)c1cccc(C(=O)O)[n+]1[O-]" : -22.6

growth inhibition reported for this compound COC(=O)C(Cc1nc2ccccc2[nH]c1=O)C(NO)C(=O)Nc1c(Cl)cc([N+](=O)[O-])cc1Cl (stereo not given) : -7.4

Reference source: PubChem BioAssay (NCI)
